Just for reference, ChEMBL document CHEMBL1127978 is where these values come from.

Would you mind telling me the reported Cmax of each entry?
- experiment.summary: Maximum plasma concentration in dog
- Assay type: ADME, organism-based, Canis lupus familiaris
// note: answer is a bare numeric in µM

Which Cmax value belongs to CC(C)[C@@H]1[C@H](OC(=O)N[C@@H](Cc2ccccc2)[C@H](O)CN2CCN(Cc3ccncc3)C[C@H]2C(=O)NC(C)(C)C)CCS1(=O)=O ?
6.5

Which Cmax value belongs to CC(C)[C@@H]1[C@H](OC(=O)N[C@@H](Cc2ccccc2)[C@H](O)CN2CCN(Cc3cccc(O)c3)C[C@H]2C(=O)NC(C)(C)C)CCS1(=O)=O ?
4

----------
- measurement.target: Human immunodeficiency virus type 1 protease (Human immunodeficiency virus 1, UniProt Q72874)
Would you mind telling me the reported IC50 of each entry?
// note: answer is a bare numeric in nM

Which IC50 value belongs to CC(C)(C)NC(=O)[C@@H]1CN(C(=O)OCc2ccccc2)CCN1C[C@H](O)[C@H](Cc1ccccc1)NC(=O)O[C@H]1CCOC1 ?
12000

Which IC50 value belongs to CC(C)(C)NC(=O)[C@@H]1CN(Cc2ccc(O)cc2)CCN1C[C@@H](O)[C@H](Cc1ccccc1)NC(=O)O[C@H]1CCOC1 ?
153

Which IC50 value belongs to CC(C)(C)NC(=O)[C@@H]1CN(Cc2ccccc2)CCN1C[C@@H](O)[C@H](Cc1ccccc1)NC(=O)O[C@H]1CCOC1 ?
102

Which IC50 value belongs to CC(C)(C)NC(=O)[C@@H]1CN(Cc2cccc(O)c2)CCN1C[C@@H](O)[C@H](Cc1ccccc1)NC(=O)O[C@H]1CCOC1 ?
482

Which IC50 value belongs to CC(C)(C)NC(=O)[C@@H]1CN(C(=O)c2cccnc2)CCN1C[C@@H](O)[C@H](Cc1ccccc1)NC(=O)O[C@H]1CCOC1 ?
371

Which IC50 value belongs to CC(C)(C)NC(=O)[C@@H]1CN(C(=O)c2ccccn2)CCN1C[C@@H](O)[C@H](Cc1ccccc1)NC(=O)O[C@H]1CCOC1 ?
257

Which IC50 value belongs to CC(C)(C)NC(=O)[C@@H]1CN(CCc2ccccc2)CCN1C[C@@H](O)[C@H](Cc1ccccc1)NC(=O)O[C@H]1CCOC1 ?
478

Which IC50 value belongs to CC(C)(C)NC(=O)[C@@H]1CN(Cc2ccncc2)CCN1C[C@@H](O)[C@H](Cc1ccccc1)NC(=O)O[C@H]1CCOC1 ?
293

Which IC50 value belongs to CC(C)(C)NC(=O)[C@@H]1CN(C(=O)OCc2ccccc2)CCN1C[C@@H](O)[C@H](Cc1ccccc1)NC(=O)O[C@H]1CCOC1 ?
18.9

Which IC50 value belongs to CC(C)(C)NC(=O)[C@@H]1CN(Cc2ccccn2)CCN1C[C@@H](O)[C@H](Cc1ccccc1)NC(=O)O[C@H]1CCOC1 ?
957
